Each recorded value in this set is attributed to patent US20240376185A1.

- MEASUREMENT_TARGET: tetanus neurotoxin (TeNT), authentic tetanus holotoxin (Clostridium tetani, UniProt P04958 2-1315)
- Sequence (P04958 2-457 limits assumed, chain 1 of 2): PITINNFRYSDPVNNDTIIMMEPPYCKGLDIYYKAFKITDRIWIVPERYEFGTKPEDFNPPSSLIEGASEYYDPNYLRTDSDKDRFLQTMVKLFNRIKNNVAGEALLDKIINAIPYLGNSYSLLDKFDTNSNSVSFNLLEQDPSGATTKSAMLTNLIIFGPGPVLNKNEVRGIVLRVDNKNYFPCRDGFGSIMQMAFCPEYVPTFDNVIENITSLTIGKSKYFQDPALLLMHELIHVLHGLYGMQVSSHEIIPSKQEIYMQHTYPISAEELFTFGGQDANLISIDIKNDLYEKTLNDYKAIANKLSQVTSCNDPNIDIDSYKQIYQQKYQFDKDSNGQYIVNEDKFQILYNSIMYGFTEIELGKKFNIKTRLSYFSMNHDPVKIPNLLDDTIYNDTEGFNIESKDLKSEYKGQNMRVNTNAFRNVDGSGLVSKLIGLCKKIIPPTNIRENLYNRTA
- Sequence (P04958 458-1315 limits assumed, chain 2 of 2): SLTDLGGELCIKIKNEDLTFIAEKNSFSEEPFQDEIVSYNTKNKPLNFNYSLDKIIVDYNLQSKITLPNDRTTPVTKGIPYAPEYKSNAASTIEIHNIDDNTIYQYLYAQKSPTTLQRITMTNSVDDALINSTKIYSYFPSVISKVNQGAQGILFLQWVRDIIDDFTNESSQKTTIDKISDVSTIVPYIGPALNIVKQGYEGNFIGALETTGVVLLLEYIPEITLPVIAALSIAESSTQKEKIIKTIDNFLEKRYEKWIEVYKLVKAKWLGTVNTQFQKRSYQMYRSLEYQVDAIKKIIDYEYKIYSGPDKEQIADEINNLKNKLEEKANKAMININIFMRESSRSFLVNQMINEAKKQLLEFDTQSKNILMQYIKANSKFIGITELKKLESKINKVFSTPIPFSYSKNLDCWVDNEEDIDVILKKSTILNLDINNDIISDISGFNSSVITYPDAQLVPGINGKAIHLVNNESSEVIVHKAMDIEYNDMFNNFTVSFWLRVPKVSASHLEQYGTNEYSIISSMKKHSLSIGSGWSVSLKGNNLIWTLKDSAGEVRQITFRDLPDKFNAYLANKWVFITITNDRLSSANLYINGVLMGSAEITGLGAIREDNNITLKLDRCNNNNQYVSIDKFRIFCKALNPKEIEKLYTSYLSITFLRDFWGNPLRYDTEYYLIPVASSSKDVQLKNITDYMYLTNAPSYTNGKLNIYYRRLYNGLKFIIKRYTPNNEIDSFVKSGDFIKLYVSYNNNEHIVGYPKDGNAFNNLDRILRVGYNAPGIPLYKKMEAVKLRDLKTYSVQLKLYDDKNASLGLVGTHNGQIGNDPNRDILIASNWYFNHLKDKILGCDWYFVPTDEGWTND
- EXPERIMENT: competition ELISA on TeNT, binder biotinylated; competitor mAb 14F5; note: test concentration or dose not given here
For each of the binders below, state its % inhibition of binding.
Write it as a number; the unit % goes unstated.

Query: Name the recorded % inhibition of binding for SVT03L (VHH) VHH: QVQLQQSGGGSVQTGDSLTLSCTASGGSLNSYFVGWFRQSGGKEREFVSVIARTGRSTSYADSVKGRFTISRDNAANTVFLTMNNLRPDDTAIYYCAAVGRPGVLHLTQSYDYWGQGTQVTVSS .
Response: -8

Query: Now the binder SVT06L (VHH) VHH: QVQLQESGGGSVQAGGSLRLSCTASELSYDDYTIAWFRRAAGEGRVEDGEGVASITKSYDRAYDNKINYGHSVKGRFTISRDNAKNTVYLQMTDLLPSDTAVYYCALDITPPGGVGASLTEGFLFDYWGQGTQVTVSS
Response: 11

Query: Now the binder SVT16L (VHH) VHH: QVQLQESGGGSVQAGDSLRLSCAASGRTISNYAMGWFRQAPGKQREFVAAISRSDNTYYTDSVKGRFTISRDNAKNTLYLQMNSLKPEETAVYYCAADPNLMYESKWKYRALEAWGQGTLVTVSS
Response: 6

Query: Now the binder SVT15L (VHH) VHH: QVQLQESGGGLVQTGGSLRLSCRASGRAFANYHFGWFRQAPGKDREFVASISWKGGSTYYANFALGRFTSSVDRAESSVYLQMSGLTPEDTATYYCAAHDGGDWNYHTGMDYWGKGILVTVSS
Response: 7

Query: Now the binder SVT13L (VHH) VHH: QVQLQESGGGLVQAGGSLRLSCAVSGTNFDDYAIGWFRQAPGKRREAVACISKTDGVTRYGNGVKGRFTISSDEARNTVFLQMNDLKDEDTAIYYCIGDFKSCGMGYKPIDHWGRGIQVTVSS
Response: 5

Query: Now the binder SVT34L (VHH) VHH: QVQLQESGGGLVQPGGSLRLSCAASGRTISSYAMGWFRQAPGKQREFVAAISRSGGNTYYTDSVKGRFIISRDNAKNTLYLQMNNLKPEETAVYYCAADPNLMYESKWKYRALEAWGQGTLVTVSS
Response: 4
